# Target or test system: Cathepsin K (Homo sapiens)
# Sequence (P43235 115-329, species assumed): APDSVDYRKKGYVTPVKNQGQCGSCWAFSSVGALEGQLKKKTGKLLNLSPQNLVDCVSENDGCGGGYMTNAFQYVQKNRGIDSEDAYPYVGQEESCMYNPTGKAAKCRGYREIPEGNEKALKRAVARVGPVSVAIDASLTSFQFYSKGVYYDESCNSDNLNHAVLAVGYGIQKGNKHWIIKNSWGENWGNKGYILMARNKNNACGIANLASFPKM
# Experiment summary: Cathepsin K inhibition assay, selectivity for cathepsin S over cathepsin K
# Type: biochemical
# Condition summary: ratio of cathepsin K inhibition constant to cathepsin S inhibition constant
Readout kind: Selectivity for Cat. S over Cat. K

See these solved cases before continuing.
O=C1C[C@H](NC(=O)[C@H](CC2CCCC2)NC(=O)c2ccc(-c3cccc(F)c3)o2)C(O)O1 (some centres unmarked) | + (+, >10)
O=C[C@H](CC(=O)O)NC(=O)[C@@H](CC(=O)N1CCOCC1)CC1CCCC1 | + (+, >10)
O=C1C[C@H](NC(=O)O[C@@H](CC2CCCCC2)C(=O)N2CCOCC2)C(O)O1 (some centres unmarked) | ++ (++, >100)
O=C1C[C@H](NC(=O)[C@H](CC2CCCC2)NC(=O)C2CC2)C(O)O1 (some centres unmarked) | ++ (++, >100)

Lab note: next compound to report on.
Selectivity for Cat. S over Cat. K recorded for this compound, O=C1C[C@H](NC(=O)[C@H](CC2CCCCC2)NC(=O)c2ccc(-c3cccc(F)c3)o2)C(O)O1 (mixture of isomers) , is ++ (++, >100)

* * *

# Target or test system: Cathepsin B (Homo sapiens)
# Experiment summary: Cathepsin B inhibition assay, selectivity for cathepsin S over cathepsin B
# Type: biochemical
# Condition summary: ratio of cathepsin B inhibition constant to cathepsin S inhibition constant
Readout kind: Selectivity for Cat. S over Cat. B

N#Cc1cccc(C(=O)N[C@@H](CC2CCCC2)C(=O)N[C@H]2CC(=O)OC2O)c1 (stereo partly shown) | +++ (+++, >1000)
CC(C)(C)C[C@H](NC(=O)C1CC1)C(=O)N[C@H]1CC(=O)OC1O (stereo partly shown) | +++ (+++, >1000)
O=C1C[C@H](NC(=O)O[C@@H](CC2CCCC2)Cn2cnc3cc(Cl)c(Cl)cc32)C(O)O1 (stereo partly shown) | +++ (+++, >1000)

* * *

# Target or test system: Cathepsin B (Homo sapiens, UniProt P07858)
# Experiment summary: Cathepsin B inhibition assay, selectivity for cathepsin S over cathepsin B
# Format: biochemical
# Condition summary: ratio of cathepsin B inhibition constant to cathepsin S inhibition constant
Readout kind: Selectivity for Cat. S over Cat. B

Example results:
CC(C)(C)C[C@H](OC(=O)N[C@H]1CC(=O)OC1O)C(=O)N1CCOCC1 (stereo partly drawn) [Example 9] | ++ (++, >100)
O=C1C[C@H](NC(=O)[C@H](CC2CCCC2)NC(=O)OC2CCOCC2)C(O)O1 (stereo partly drawn) [Example 20] | +++ (+++, >1000)
O=C[C@H](CC(=O)O)NC(=O)[C@@H](CC(=O)N1CCOCC1)CC1CCCC1 [Example 4] | +++ (+++, >1000)
COC1OC(=O)C[C@@H]1NC(=O)[C@H](CC1CCCCC1)NC(=O)c1ccc(-c2cccc(F)c2)o1 (stereo partly drawn) [Example 16] | + (+, >10)
O=C1C[C@H](NC(=O)[C@H](CC2CCCCC2)NC(=O)c2ccc(-c3cccc(F)c3)o2)C(O)O1 (mixture of isomers) [Example 15] | +++ (+++, >1000)
O=C1C[C@H](NC(=O)[C@H](CC2CCCC2)NC(=O)c2ccc(-c3cccc(C(F)(F)F)c3)o2)C(O)O1 (stereo partly drawn) [Example 23] | +++ (+++, >1000)
O=C1C[C@H](NC(=O)[C@H](CC2CCCCC2)NC(=O)OCc2ccccc2)C(OCc2ccccc2)O1 (stereo partly drawn) [Example 11] | + (+, >10)
O=C1C[C@H](NC(=O)[C@H](CC2CCCC2)NC(=O)c2ccc(-c3cccc(F)c3)o2)C(O)O1 (stereo partly drawn) [Example 1] | +++ (+++, >1000)
O=C1C[C@H](NC(=O)[C@H](CC2CCCC2)NS(=O)(=O)c2cccc(OC(F)(F)F)c2)C(O)O1 (stereo partly drawn) [Example 8] | +++ (+++, >1000)
CCOC1OC(=O)C[C@@H]1NC(=O)[C@H](CC1CCCC1)NC(=O)c1ccc(-c2cccc(F)c2)o1 (stereo partly drawn) [Example 12] | ++ (++, >100)

So, O=C1CC(NC(=O)C(CC2CCCC2)NC(=O)c2ccc(-c3cccc(F)c3)o2)C(OC2CCCC2)O1 (stereo not drawn) [Example 26] ? Its Selectivity for Cat. S over Cat. B was +++ (+++, >1000)

Entry O=C1C[C@H](NC(=O)[C@H](CC2CCCCC2)OC(=O)N2CCOCC2)C(O)O1 (stereo partly drawn) [Example 3] , Selectivity for Cat. S over Cat. B reported as +++ (+++, >1000)

So, O=C1C[C@H](NC(=O)[C@@H](CC(=O)N2CCOCC2)CC2CCCCC2)C(O)O1 (stereo partly drawn) [Example 6] ? Its Selectivity for Cat. S over Cat. B was +++ (+++, >1000)

Noted for O=C1C[C@H](NC(=O)[C@H](CC2CCCC2)NC(=O)c2cccc(C(F)(F)F)c2)C(O)O1 (stereo partly drawn) [Example 24] : its Selectivity for Cat. S over Cat. B reads +++ (+++, >1000)

Data point: O=C1C[C@H](NC(=O)[C@H](CC2CC2)NC(=O)C2CC2)C(O)O1 (stereo partly drawn) [Example 21] ; Selectivity for Cat. S over Cat. B = ++ (++, >100)

* * *

Quick record of Ki values for Caspase 8 (Homo sapiens).

Look over these answered cases.
O=C1C[C@H](NC(=O)[C@H](CC2CCCC2)NS(=O)(=O)c2cccc(OC(F)(F)F)c2)C(O)O1 (stereo partly drawn) | > 10 µM
O=C1C[C@H](NC(=O)[C@@H](CC(=O)N2CCOCC2)CC2CCCCC2)C(O)O1 (stereo partly drawn) | > 10 µM

O=C1C[C@H](NC(=O)O[C@@H](CC2CCCCC2)C(=O)N2CCOCC2)C(O)O1 (stereo partly drawn) tested on Caspase 8 (Homo sapiens) gave Ki: > 100 µM
